Field: pIC50. System: SGK1 (human). Provenance: assorted publications.
pIC50: −log10 of the molar value.

Compound: O=c1[nH]c2ccc(NC[C@@H]3CCNC3)nc2n1Cc1c(Cl)cccc1Cl
Tgt: SGK1 (human)
Recorded Value: < 5.00
--
Compound: O=c1[nH]c2cnc(NC[C@H]3CCCNC3)nc2n1Cc1ccccc1C(F)(F)F
Tgt: SGK1 (human)
Recorded Value: < 5.00
--
Compound: NCC1CC(n2cc(C#CCO)c3c(N)ncnc32)C1 (stereo not drawn)
Tgt: SGK1 (human)
Recorded Value: 5.59
--
Compound: O=c1[nH]c2cnc(NCC3CCNC3)nc2n1Cc1cc(F)ccc1C(F)(F)F (stereo not drawn)
Tgt: SGK1 (human)
Recorded Value: < 6.00
--
Compound: Nc1ncnc2c1c(-c1ccc3occc3c1)cn2C1CC(CNC(=O)C(F)(F)F)C1 (stereo not drawn)
Tgt: SGK1 (human)
Recorded Value: 5.36
--
Compound: CCc1c(-c2nnc(NCc3cccc(F)c3)o2)ccc(O)c1C
Tgt: SGK1 (human)
Recorded Value: 7.00 to 9.00

# get_value(readout='pIC50', item= NCC1CC(n2cc(-c3cccc(NCc4ccccc4)c3)c3c(N)ncnc32)C1 (stereo not drawn) )
5.44

# get_value(readout='pIC50', item= O=c1[nH]c2cnc(NCC3CCNC3)nc2n1Cc1c(Cl)cccc1Cl (stereo not drawn) )
< 5.00

# get_value(readout='pIC50', item= O=c1[nH]c2cnc(NCC3CCNC3)nc2n1Cc1c(F)cccc1Cl (stereo not drawn) )
< 5.00

---

Field: IC50. System: SGK1 (human) (UniProt O00141). Provenance: assorted publications.

Answered examples (3):
Molecule: CCc1c(-c2nnc(N)o2)ccc(O)c1C
Tgt: SGK1 (human) (UniProt O00141)
Recorded Value: 0.1 to 10 µM

Molecule: O=c1[nH]c2cnc(NC[C@@H]3CCCNC3)nc2n1Cc1c(Cl)cccc1Cl
Tgt: SGK1 (human) (UniProt O00141)
Recorded Value: > 10 µM

Molecule: COc1cccc(CNc2nnc(-c3c[nH]c4ncccc34)n2Cc2ccccc2)c1
Tgt: SGK1 (human) (UniProt O00141)
Recorded Value: 0.1 to 10 µM

# get_value(readout='IC50', item= Oc1ccc(-c2nnc(NCc3cccc(F)c3)o2)nc1 )
> 10 µM

# get_value(readout='IC50', item= O=c1[nH]c2cnc(NCC3CCNC3)nc2n1Cc1ccccc1Br (centres unmarked) )
> 10 µM
